test system: Enterococcus faecalis (VRE) ATCC51575; assay: MIC measurement by CLSI disk method, VRE ATCC 51575; format: cell-based; conditions: at the MIC amount per disk; mean of longest and shortest lengths of area without growth
measuredProperty: Inhibition zone (mm)
The reply should contain only the number, in mm.

Under Enterococcus faecalis (VRE) ATCC51575: Inhibition zone value of C[C@H]1C/C=C/CC/C=C/CCCCCCCCCCCC[C@H](OP(=O)([O-])OCC[N+](C)(C)C)CC(=O)O1 [Compound D, (3S,16E,20E,23S)-(+)-Eushearilide] ? 4.7

Under Enterococcus faecalis (VRE) ATCC51575: Inhibition zone value of C[C@@H]1C/C=C/CC/C=C/CCCCCCCCCCCC[C@H](OP(=O)([O-])OCC[N+](C)(C)C)CC(=O)O1 [Compound E, (3S,16E,20E,23R)-(+)-Eushearilide] ? 6.9

Under Enterococcus faecalis (VRE) ATCC51575: Inhibition zone value of C[C@H]1C/C=C/CC/C=C\CCCCCCCCCCCC[C@@H](OP(=O)([O-])OCC[N+](C)(C)C)CC(=O)O1 [Compound H, (3R,16Z,20E,23S)-(−)-Eushearilide] ? 5.5

Under Enterococcus faecalis (VRE) ATCC51575: Inhibition zone value of C[C@H]1C/C=C/CC/C=C\CCCCCCCCCCCC[C@H](OP(=O)([O-])OCC[N+](C)(C)C)CC(=O)O1 [Compound G, (3S,16Z,20E,23S)-(+)-Eushearilide] ? 6.7

Under Enterococcus faecalis (VRE) ATCC51575: Inhibition zone value of C[C@H]1C/C=C/CC/C=C/CCCCCCCCCCCC[C@@H](OP(=O)([O-])OCC[N+](C)(C)C)CC(=O)O1 [Compound F, (3R,16E,20E,23S)-(−)-Eushearilide] ? 5.8
